Some molecules, each annotated with its measured pKd.
- tested target: human orexin 2 receptor (hOx2R) (Homo sapiens, UniProt O43614)
- Construct: expressed in transfected cells
- Sequence (O43614 1-444): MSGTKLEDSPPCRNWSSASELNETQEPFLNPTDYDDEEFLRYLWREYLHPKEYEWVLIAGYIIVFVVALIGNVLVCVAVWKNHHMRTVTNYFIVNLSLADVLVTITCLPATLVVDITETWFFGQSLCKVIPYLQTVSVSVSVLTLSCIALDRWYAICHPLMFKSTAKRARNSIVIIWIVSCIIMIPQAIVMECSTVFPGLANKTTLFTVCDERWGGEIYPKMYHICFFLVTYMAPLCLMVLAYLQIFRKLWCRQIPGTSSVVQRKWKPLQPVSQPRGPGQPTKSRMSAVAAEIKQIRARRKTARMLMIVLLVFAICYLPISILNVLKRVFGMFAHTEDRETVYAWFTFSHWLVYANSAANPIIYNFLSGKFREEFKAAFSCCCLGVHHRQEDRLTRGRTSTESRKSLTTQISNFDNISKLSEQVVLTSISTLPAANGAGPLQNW
- protocol summary: Radioligand binding assay ([125I]orexin A competition), hOx2R
- condition description: CHO or HEK cell membranes, 1 h room temperature
pKd: −log10 of the molar value.
quantity: pKd

molecule="CN(C(=O)c1cc(C(F)(F)F)cc(C(F)(F)F)c1)C(CCNC(=O)c1ccccn1)Cc1ccc(Cl)cc1 (stereo not shown)" tested_target="human orexin 2 receptor (hOx2R) (Homo sapiens, UniProt O43614)" relation_sign== numeric_result=7.13
molecule=CN(C(=O)c1ccccc1)[C@H](CCNC(=O)c1cccc2c1OCO2)Cc1ccccc1 tested_target="human orexin 2 receptor (hOx2R) (Homo sapiens, UniProt O43614)" relation_sign== numeric_result=6.36
molecule=CN(C(=O)c1ccc2c(c1)OCO2)[C@H](CCNC(=O)c1nc2ccccc2n1C)Cc1ccccc1 tested_target="human orexin 2 receptor (hOx2R) (Homo sapiens, UniProt O43614)" relation_sign== numeric_result=6.39
molecule=CCCN(C(=O)c1cccc2c1OCO2)[C@H](CCNC(=O)c1ccccn1)Cc1ccccc1 tested_target="human orexin 2 receptor (hOx2R) (Homo sapiens, UniProt O43614)" relation_sign== numeric_result=5.44
molecule=CCN(C(=O)c1cccc2c1OCO2)[C@H](CCNC(=O)c1ccccn1)Cc1ccccc1 tested_target="human orexin 2 receptor (hOx2R) (Homo sapiens, UniProt O43614)" relation_sign== numeric_result=6.13
molecule=CN(C(=O)c1cccc2ccccc12)[C@H](CCNC(=O)c1ccccn1)Cc1ccc(F)cc1 tested_target="human orexin 2 receptor (hOx2R) (Homo sapiens, UniProt O43614)" relation_sign== numeric_result=6.43
molecule=CCN(C(=O)c1ccc2c(c1)OCO2)[C@H](CCNC(=O)c1ccccn1)Cc1ccccc1 tested_target="human orexin 2 receptor (hOx2R) (Homo sapiens, UniProt O43614)" relation_sign== numeric_result=7.34
molecule=CN(C(=O)c1ccc(Br)cc1)[C@H](CCNC(=O)c1ccccn1)Cc1ccccc1 tested_target="human orexin 2 receptor (hOx2R) (Homo sapiens, UniProt O43614)" relation_sign== numeric_result=6.09
molecule=CN(C(=O)c1cccc2ccccc12)[C@H](CCNC(=O)c1nc2ccccc2n1C)Cc1ccc(F)cc1 tested_target="human orexin 2 receptor (hOx2R) (Homo sapiens, UniProt O43614)" relation_sign== numeric_result=6.56
molecule=CN(C(=O)c1ccccc1)[C@H](CCNC(=O)c1ccccn1)Cc1ccc(F)cc1 tested_target="human orexin 2 receptor (hOx2R) (Homo sapiens, UniProt O43614)" relation_sign== numeric_result=5.15
molecule=CCOc1cccc(C(=O)N(C)[C@H](CCNC(=O)c2cccn2C)Cc2ccccc2)c1 tested_target="human orexin 2 receptor (hOx2R) (Homo sapiens, UniProt O43614)" relation_sign== numeric_result=8.10
molecule=CN(C(=O)c1cccc2c1OCO2)[C@H](CCNC(=O)c1ccccn1)Cc1ccc(F)cc1 tested_target="human orexin 2 receptor (hOx2R) (Homo sapiens, UniProt O43614)" relation_sign== numeric_result=5.23
molecule=Cc1nc2sccn2c1C(=O)NCC[C@H](Cc1ccccc1)N(C)C(=O)c1ccc2c(c1)OCO2 tested_target="human orexin 2 receptor (hOx2R) (Homo sapiens, UniProt O43614)" relation_sign== numeric_result=7.92
molecule=CN(C(=O)c1cc(C(F)(F)F)cc(C(F)(F)F)c1)[C@@H](CCNC(=O)c1ccccn1)Cc1ccccc1 tested_target="human orexin 2 receptor (hOx2R) (Homo sapiens, UniProt O43614)" relation_sign=< numeric_result=5.00
molecule=CN(C(=O)c1ccc2cc[nH]c2c1)[C@H](CCNC(=O)c1ccccn1)Cc1ccccc1 tested_target="human orexin 2 receptor (hOx2R) (Homo sapiens, UniProt O43614)" relation_sign== numeric_result=5.16
molecule="CN(C(=O)c1cc(C(F)(F)F)cc(C(F)(F)F)c1)C(CCNC(=O)c1ccc2c(ccn2C)c1)Cc1ccccc1 (stereo not shown)" tested_target="human orexin 2 receptor (hOx2R) (Homo sapiens, UniProt O43614)" relation_sign== numeric_result=5.41
molecule=CN(C(=O)c1ccc2ccccc2c1)[C@H](CCNC(=O)c1nc2ccccc2n1C)Cc1ccccc1 tested_target="human orexin 2 receptor (hOx2R) (Homo sapiens, UniProt O43614)" relation_sign== numeric_result=6.11
molecule=CN(C(=O)c1cccc2c1ccn2C)[C@H](CCNC(=O)c1ccccn1)Cc1ccccc1 tested_target="human orexin 2 receptor (hOx2R) (Homo sapiens, UniProt O43614)" relation_sign== numeric_result=6.21
molecule=CN(C(=O)c1ccc2c(c1)OCC2)[C@H](CCNC(=O)c1cccn1C)Cc1ccccc1 tested_target="human orexin 2 receptor (hOx2R) (Homo sapiens, UniProt O43614)" relation_sign== numeric_result=7.09
molecule=Cc1nc2sccn2c1C(=O)NCC[C@H](Cc1ccccc1)N(C)C(=O)c1ccccc1 tested_target="human orexin 2 receptor (hOx2R) (Homo sapiens, UniProt O43614)" relation_sign== numeric_result=6.35
molecule=CN(C(=O)c1cccc2c1OCCO2)[C@H](CCNC(=O)c1ccccn1)Cc1ccccc1 tested_target="human orexin 2 receptor (hOx2R) (Homo sapiens, UniProt O43614)" relation_sign== numeric_result=5.76
molecule=CCOc1cc(OCC)cc(C(=O)N(C)[C@H](CCNC(=O)c2cccn2C)Cc2ccccc2)c1 tested_target="human orexin 2 receptor (hOx2R) (Homo sapiens, UniProt O43614)" relation_sign== numeric_result=7.68
molecule=CN(C(=O)c1ccc2c(c1)OCO2)[C@@H](Cc1ccccc1)C(C)(C)CNC(=O)c1ccccn1 tested_target="human orexin 2 receptor (hOx2R) (Homo sapiens, UniProt O43614)" relation_sign== numeric_result=6.27
molecule=Cc1nc(C(=O)NCC[C@H](Cc2ccccc2)N(C)C(=O)c2ccccc2)c(-c2ccccc2F)s1 tested_target="human orexin 2 receptor (hOx2R) (Homo sapiens, UniProt O43614)" relation_sign== numeric_result=6.47
molecule=CN(C(=O)c1ccc2c(c1)OCO2)[C@H](CCNC(=O)c1ccc2c(c1)OCO2)Cc1ccccc1 tested_target="human orexin 2 receptor (hOx2R) (Homo sapiens, UniProt O43614)" relation_sign== numeric_result=7.33
molecule=CN(C(=O)c1ccc2c(c1)OCO2)[C@H](CCNC(=O)c1ccccn1)Cc1ccc(Cl)cc1 tested_target="human orexin 2 receptor (hOx2R) (Homo sapiens, UniProt O43614)" relation_sign== numeric_result=6.51
molecule=CN(C(=O)c1ccc2c(c1)CCN2)[C@H](CCNC(=O)c1ccccn1)Cc1ccccc1 tested_target="human orexin 2 receptor (hOx2R) (Homo sapiens, UniProt O43614)" relation_sign== numeric_result=6.58
molecule=CN(C(=O)c1cc(C(F)(F)F)cc(C(F)(F)F)c1)[C@H](CCNC(=O)c1ccccn1)Cc1ccccc1 tested_target="human orexin 2 receptor (hOx2R) (Homo sapiens, UniProt O43614)" relation_sign== numeric_result=7.74
molecule=CN(C(=O)c1ccccc1)[C@H](CCNC(=O)c1nc2ccccc2n1C)Cc1ccccc1 tested_target="human orexin 2 receptor (hOx2R) (Homo sapiens, UniProt O43614)" relation_sign== numeric_result=6.03
molecule=CN(C(=O)c1cccc2[nH]ccc12)[C@H](CCNC(=O)c1nc2ccccc2n1C)Cc1ccccc1 tested_target="human orexin 2 receptor (hOx2R) (Homo sapiens, UniProt O43614)" relation_sign== numeric_result=8.00
molecule=CN(C(=O)c1cccc2c1OCO2)[C@H](CCNC(=O)c1nc2ccccc2n1C)Cc1ccc(F)cc1 tested_target="human orexin 2 receptor (hOx2R) (Homo sapiens, UniProt O43614)" relation_sign== numeric_result=5.57
